src = patent US12060334B2

The following compounds each carry a recorded MIC for E. faecalis OG1RF.
OBSERVED PROPERTY: MIC (µM)

Oc1c(Br)ccc2nc3ccccc3nc12 [Compound 1, 2-bromo-1-hydroxyphenazine, reference compound]
18.8
Oc1c(Br)c(Cl)c(Br)c2nc3c(Cl)cc(Cl)cc3nc12 [Compound 34, 2,4-Dibromo-3,6,8-trichlorophenazin-1-ol]
0.3
c1ccc(CN(CCN(Cc2ccccn2)Cc2ccccn2)Cc2ccccn2)nc1 [TPEN, reference compound]
46.9

----------
system: S. aureus 147; experiment: MIC assay against clinical isolate; assay type: cell-based; conditions: Staphylococcus aureus, 147; clinical isolate; read-out: MIC S. aureus 147
OBSERVED PROPERTY: MIC

Oc1c(Br)c(Cl)c(Br)c2nc3c(Cl)cc(Cl)cc3nc12
0.47 µM
CCSc1c(Br)c(O)c2nc3cccc(C)c3nc2c1Br
0.47 µM
Cc1cccc2nc3c(O)c(Br)c(Cl)c(Br)c3nc12
0.12 µM
COc1cccc(OC)c1C(=O)N[C@@H]1C(=O)N2[C@@H]1SC(C)(C)[C@@H]2C(=O)O [Methicillin, reference compound]
6.25 µM
